Experiment Description: Caco-2 cell permeability assay
Assay type: in vitro ADME
Condition Notes: human, Caco-2, Caco-2, B to A, 10 µM, 1 h

Record Smiles: C=C1[C@@H](O)[C@]2(O)OC[C@]34[C@H]2[C@@]2(C)[C@H](O)C(=O)C=C(C)[C@@H]2C[C@H]3OC(=O)[C@H](O)[C@@]14O
Reading Unit: ×10⁻⁶ cm/s
Papp at 1 h, 10 µM: 0.73

====

Experiment Description: Caco-2 cell permeability assay
Type: in vitro ADME
Condition Notes: human, Caco-2, Caco-2; read-out: Efflux Ratio

Record Smiles: C=C1[C@@H](O)[C@]2(O)OC[C@]34[C@H]2[C@@]2(C)[C@H](O)C(=O)C=C(C)[C@@H]2C[C@H]3OC(=O)[C@H](O)[C@@]14O
efflux ratio at 1 h, 10 µM: < 2

====

Experiment Description: Lipophilicity, shake flask method with octanol and buffer (pH 7.4)
Type: physicochemical
Condition Notes: pH 7.4
Where a name gives a salt, the structure may show the parent alone.
# logD at 16 h values compiled below
Measured Attribute: logD at 16 h

Compound: COCCc1ccc(OCC(O)CNC(C)C)cc1 (stereo not drawn) [metoprolol, metoprolol tartrate]
Measured Attribute: logD at 16 h
Result Value: -0.29
//
Compound: C[C@]12CC[C@@H]3c4ccc(O)cc4CC[C@H]3[C@@H]1C[C@@H](O)[C@@H]2O [Estriol, estriol, reference compound]
Measured Attribute: logD at 16 h
Result Value: 2.82
//
Compound: CC/C(=C(/CC)c1ccc(O)cc1)c1ccc(O)cc1
Measured Attribute: logD at 16 h
Result Value: 3.18

====

Experiment Description: Pharmacokinetics of eurycomanone (pure compound) in rats (intravenous and oral)
Format: in vivo
Condition Notes: male, Wistar, rat, 3 mg/kg intravenous, plasma, read-out: AUC0–8
Measured Attribute: AUC(0-t) (ng·h/mL)

Record Smiles: C=C1[C@@H](O)[C@]2(O)OC[C@]34[C@H]2[C@@]2(C)[C@H](O)C(=O)C=C(C)[C@@H]2C[C@H]3OC(=O)[C@H](O)[C@@]14O
Measured Attribute: AUC(0-t)
Result Value: 970

====

Experiment Description: Plasma protein binding (rapid equilibrium dialysis), monkey
Type: in vitro ADME
Condition Notes: pH 7.4, 37 °C, read-out: percentage bound to plasma protein (converted)

Compound: C=C1[C@@H](O)[C@]2(O)OC[C@]34[C@H]2[C@@]2(C)[C@H](O)C(=O)C=C(C)[C@@H]2C[C@H]3OC(=O)[C@H](O)[C@@]14O [Eurycomanone]
fraction unbound at 4 h, 10 µM: 0.646

====

Experiment Description: Pharmacokinetics of eurycomanone (pure compound) in rats (intravenous and oral)
Type: in vivo
Condition Notes: male, Wistar, rat, plasma, 3 mg/kg intravenous, read-out: Half-life (t1/2) (converted)
Measured Attribute: half-life

Compound: C=C1[C@@H](O)[C@]2(O)OC[C@]34[C@H]2[C@@]2(C)[C@H](O)C(=O)C=C(C)[C@@H]2C[C@H]3OC(=O)[C@H](O)[C@@]14O [Eurycomanone]
Measured Attribute: half-life
Result Value: 18 min

====

Experiment Description: Rat liver hepatocyte stability
Assay type: in vitro ADME
Condition Notes: rat liver hepatocytes; read-out: Intrinsic clearance (Clint)

Record Smiles: C=C1[C@@H](O)[C@]2(O)OC[C@]34[C@H]2[C@@]2(C)[C@H](O)C(=O)C=C(C)[C@@H]2C[C@H]3OC(=O)[C@H](O)[C@@]14O
hepatocyte CLint / µL/min/1e6 cells: 0.67

====

Experiment Description: Pharmacokinetics of eurycomanone (pure compound) in rats (intravenous and oral)
Type: in vivo
Condition Notes: male, Wistar, rat, plasma, 30 mg/kg oral vs 3 mg/kg intravenous, read-out: Bioavailability (F)
Source text: The ethical approval for the animal experiments conducted in India was granted from the Animal Ethics Committee, Aurigene Discovery Technologies, Bangalore, India. Eight male Wistar rats (12 weeks old; weighing 250–350 g) and eight Caeserean Derived-1 (CD-1) mice (weighing 20–30 g) were obtained from the Animal House, Aurigene Discovery Technologies, Bangalore, India. They were supplied with standard rodent diets and drinking water ad libitum. […]
Measured Attribute: bioavailability (%)

Record Smiles: C=C1[C@@H](O)[C@]2(O)OC[C@]34[C@H]2[C@@]2(C)[C@H](O)C(=O)C=C(C)[C@@H]2C[C@H]3OC(=O)[C@H](O)[C@@]14O
Measured Attribute: bioavailability
Reading Unit: %
Result Value: 11.8

====

Experiment Description: Pharmacokinetics of eurycomanone (pure compound) in rats (intravenous and oral)
Assay type: in vivo
Condition Notes: male, Wistar, rat, 30 mg/kg oral, plasma, read-out: Observed Cmax
Measured Attribute: Cmax

Record Smiles: C=C1[C@@H](O)[C@]2(O)OC[C@]34[C@H]2[C@@]2(C)[C@H](O)C(=O)C=C(C)[C@@H]2C[C@H]3OC(=O)[C@H](O)[C@@]14O
Result Value: 238 ng/mL

====

Experiment Description: Pharmacokinetics of eurycomanone in mice (intravenous and oral)
Type: in vivo, CD-1 mice
Condition Notes: CD-1, mouse, plasma, 1 mg/kg intravenous, read-out: Plasma Clearance (CL) (converted)

Compound: C=C1[C@@H](O)[C@]2(O)OC[C@]34[C@H]2[C@@]2(C)[C@H](O)C(=O)C=C(C)[C@@H]2C[C@H]3OC(=O)[C@H](O)[C@@]14O [Eurycomanone]
clearance: 64.2 mL/min/kg

====

Experiment Description: Lipophilicity, shake flask method with octanol and buffer (pH 7.4)
Format: physicochemical
Condition Notes: pH 7.4, octanol/buffer shake flask; read-out: distribution coefficient log D

Molecule: C=C1[C@@H](O)[C@]2(O)OC[C@]34[C@H]2[C@@]2(C)[C@H](O)C(=O)C=C(C)[C@@H]2C[C@H]3OC(=O)[C@H](O)[C@@]14O [Eurycomanone]
logD at 16 h: -0.35

====

Experiment Description: Pharmacokinetics of eurycomanone (pure compound) in rats (intravenous and oral)
Format: in vivo
Condition Notes: male, Wistar, rat, plasma, 30 mg/kg oral, read-out: Observed Tmax

Record Smiles: C=C1[C@@H](O)[C@]2(O)OC[C@]34[C@H]2[C@@]2(C)[C@H](O)C(=O)C=C(C)[C@@H]2C[C@H]3OC(=O)[C@H](O)[C@@]14O
Reading Unit: h
Tmax: 2

====

Experiment Description: Pharmacokinetics of eurycomanone in mice (intravenous and oral)
Format: in vivo, CD-1 mice
Condition Notes: CD-1, mouse, 10 mg/kg oral, plasma, read-out: AUC0–8
Measured Attribute: AUC(0-t) (ng·h/mL)

Compound: C=C1[C@@H](O)[C@]2(O)OC[C@]34[C@H]2[C@@]2(C)[C@H](O)C(=O)C=C(C)[C@@H]2C[C@H]3OC(=O)[C@H](O)[C@@]14O [Eurycomanone]
Measured Attribute: AUC(0-t)
Result Value: 1210

====

Experiment Description: Parallel artificial membrane permeability assay (PAMPA)
Format: in vitro ADME
Condition Notes: pH 7.4, 18 h, room temperature, read-out: permeation through artificial membrane (PAMPA)

Record Smiles: C=C1[C@@H](O)[C@]2(O)OC[C@]34[C@H]2[C@@]2(C)[C@H](O)C(=O)C=C(C)[C@@H]2C[C@H]3OC(=O)[C@H](O)[C@@]14O
Reading Unit: ×10⁻⁶ cm/s
Papp at 18 h, 25 µM: 0.78

====

Experiment Description: Aqueous solubility
Assay type: physicochemical
Condition Notes: aqueous buffer, kinetic from dmso stock; pH 7.4, 16 h, room temperature, 2% DMSO
Description: The aqueous […] was estimated by adding 10 µL of eurycomanone stock solution (10 mM) to 490 µL of aqueous buffer at pH 5.4, pH 7.4 and DMSO in triplicates in deep-well plates. […] The plate was kept on a shaker (300 rpm) at room temperature for 16 h. The plate was then centrifuged at 25 °C, 4000 rpm for 25 min. The supernatant was transferred and analysed using LC-MS/MS. Peak area 1 = peak area of the compound in 2% DMSO at the different pH levels. […]

Compound: C=C1[C@@H](O)[C@]2(O)OC[C@]34[C@H]2[C@@]2(C)[C@H](O)C(=O)C=C(C)[C@@H]2C[C@H]3OC(=O)[C@H](O)[C@@]14O [Eurycomanone]
solubility at 16 h: 205 µM

====

Experiment Description: Plasma protein binding (rapid equilibrium dialysis), dog
Type: in vitro ADME
Condition Notes: pH 7.4, 37 °C, read-out: percentage bound to plasma protein (converted)
Measured Attribute: fraction unbound at 4 h, 10 µM

Compound: C=C1[C@@H](O)[C@]2(O)OC[C@]34[C@H]2[C@@]2(C)[C@H](O)C(=O)C=C(C)[C@@H]2C[C@H]3OC(=O)[C@H](O)[C@@]14O [Eurycomanone]
Result Value: 0.322

====

Experiment Description: Pharmacokinetics of eurycomanone in mice (intravenous and oral)
Assay type: in vivo, CD-1 mice
Condition Notes: CD-1, mouse, plasma, po, 10 mg/kg, 10 mg/kg oral, read-out: Observed Cmax
Source text: The ethical approval for the animal experiments conducted in India was granted from the Animal Ethics Committee, Aurigene Discovery Technologies, Bangalore, India. Eight male Wistar rats (12 weeks old; weighing 250–350 g) and eight Caeserean Derived-1 (CD-1) mice (weighing 20–30 g) were obtained from the Animal House, Aurigene Discovery Technologies, Bangalore, India. They were supplied with standard rodent diets and drinking water ad libitum. […]

Record Smiles: C=C1[C@@H](O)[C@]2(O)OC[C@]34[C@H]2[C@@]2(C)[C@H](O)C(=O)C=C(C)[C@@H]2C[C@H]3OC(=O)[C@H](O)[C@@]14O
Reading Unit: ng/mL
Cmax: 335
